Tested on: HepAD38 cells
MEASUREMENT DESCRIPTION: Cell viability assay (AlamarBlue) in HepAD38 cells
CONDITION DETAILS: HepAD38 cells in the presence of 0.3 μg/ml tetracycline, six days incubation
MEASUREMENT NAME: CC50

Per the record, CC1Cc2n[nH]c(C(=O)N3CC(F)(F)CC34CC4)c2CN1C(=O)Nc1ccc(F)c(Cl)c1 (single isomer, unassigned) [Example 9] has CC50 of > 10 µM

Cited source for all entries: patent US20220009922A1
